target: Uracil nucleotide/cysteinyl leukotriene receptor (Homo sapiens, UniProt Q13304); assay: Displacement of [3H]PSB-12150 from human GPR17 expressed in CHO-K1 cell membranes after 60 mins by homologous competition binding assay in presence of pranlukast
Sequence (Q13304 whole entry): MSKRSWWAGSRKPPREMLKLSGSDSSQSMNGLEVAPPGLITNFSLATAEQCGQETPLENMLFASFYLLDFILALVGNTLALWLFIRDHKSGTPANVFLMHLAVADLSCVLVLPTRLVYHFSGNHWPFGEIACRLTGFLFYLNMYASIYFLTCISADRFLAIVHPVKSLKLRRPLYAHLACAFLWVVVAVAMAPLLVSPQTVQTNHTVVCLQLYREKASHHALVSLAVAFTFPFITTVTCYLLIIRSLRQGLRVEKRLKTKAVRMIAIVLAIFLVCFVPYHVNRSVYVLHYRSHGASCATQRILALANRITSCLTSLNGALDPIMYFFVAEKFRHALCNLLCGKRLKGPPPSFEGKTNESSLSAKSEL
quantity: pKi
Bear in mind: pKi is minus log10 of a mol/L concentration; give just that figure.

Ask: Please report the recorded pKi for "O=C(O)CCc1c(C(=O)O)[nH]c2cc(Cl)cc(Cl)c12" .
Result: 5.92

====

molecular target: Uracil nucleotide/cysteinyl leukotriene receptor (Homo sapiens); test: biochemical
Description: Displacement of [3H]PSB-12150 from human GPR17 expressed in CHO-K1 cell membranes after 60 mins by heterologous competition binding assay
quantity: Ki (µM)
The reply should be a number in µM, with the unit left off.

Check out these entries, answers already filled in.
compound	targetOrTestSystem	resultUnits	Ki
O=C(Nc1cccc2c(=O)cc(-c3nnn[nH]3)oc12)c1ccc(OCCCCc2ccccc2)cc1 [PRANLUKAST]	Uracil nucleotide/cysteinyl leukotriene receptor (Homo sapiens)	µM	4.06
O=C(/C=C/c1c(C(=O)O)[nH]c2cc(Cl)cc(Cl)c12)Nc1ccccc1 [GAVESTINEL]	Uracil nucleotide/cysteinyl leukotriene receptor (Homo sapiens)	µM	1.63

// moving on: another record for Ki
Ask: Query Ki on Uracil nucleotide/cysteinyl leukotriene receptor (Homo sapiens) for CC(C)(O)c1ccccc1CC[C@@H](SCC1(CC(=O)O)CC1)c1cccc(/C=C/c2ccc3ccc(Cl)cc3n2)c1 [MONTELUKAST]
Result: 6.54
